Below are pIC50 values measured for Protease (Human immunodeficiency virus 1, UniProt Q9YQ12).
pIC50: −log10 of the molar value.
VALUE_KIND: pIC50

(A) CC(C)(CC(=O)O)CC(=O)O[C@H]1CC[C@]2(C)[C@H]3CC=C4[C@@H]5CC(C)(C)CC[C@]5(C(=O)NCCCCCC(=O)O)CC[C@@]4(C)[C@]3(C)CC[C@H]2C1(C)C
(B) CC(C)[C@H](NC(=O)CCCCCNC(=O)[C@]12CCC(C)(C)C[C@H]1C1=CC[C@@H]3[C@@]4(C)CC[C@H](OC(=O)c5ccccc5C(=O)O)C(C)(C)[C@@H]4CC[C@@]3(C)[C@]1(C)CC2)C(=O)O
Between these two entries, A and B , state which has the higher pIC50. Respond with the label that goes with your answer. B

###

Below are IC50 values measured for Protease (Human immunodeficiency virus 1, UniProt Q9YQ12).

>  <STRUCTURE_SMILES_STRING>
CC(C)[C@H](NC(=O)CCCCCCCCCCNC(=O)[C@]12CCC(C)(C)C[C@H]1C1=CC[C@@H]3[C@@]4(C)CC[C@H](OC(=O)CCC(=O)O)C(C)(C)[C@@H]4CC[C@@]3(C)[C@]1(C)CC2)C(=O)O

>  <VALUE_REPORTED>
> 50 µM

$$$$
>  <STRUCTURE_SMILES_STRING>
CC(=O)O[C@H]1CC[C@]2(C)[C@H]3CC=C4[C@@H]5CC(C)(C)CC[C@]5(C(=O)NCCCCCC(=O)NCC(=O)O)CC[C@@]4(C)[C@]3(C)CC[C@H]2C1(C)C

>  <VALUE_REPORTED>
> 50 µM

$$$$
>  <STRUCTURE_SMILES_STRING>
CCCCCC(=O)O[C@H]1CC[C@]2(C)[C@H]3CC=C4[C@@H]5CC(C)(C)CC[C@]5(C(=O)NCCCCCCCCCCC(=O)O)CC[C@@]4(C)[C@]3(C)CC[C@H]2C1(C)C

>  <VALUE_REPORTED>
> 50 µM

$$$$

Continue with the next compound.
Entry CC(=O)O[C@H]1CC[C@]2(C)[C@H]3CC=C4[C@@H]5CC(C)(C)CC[C@]5(C(=O)NCCCC(=O)O)CC[C@@]4(C)[C@]3(C)CC[C@H]2C1(C)C needs its IC50 filled in; supply it. 32.6 µM

###

MEASURED_TARGET: Protease (Human immunodeficiency virus 1, UniProt Q9YQ12)
Sequence (Q9YQ12 whole entry): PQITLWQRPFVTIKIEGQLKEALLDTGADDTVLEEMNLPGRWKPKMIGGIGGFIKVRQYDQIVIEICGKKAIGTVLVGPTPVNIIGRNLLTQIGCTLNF
pIC50: −log10 of the molar value.
VALUE_KIND: pIC50

>  <STRUCTURE_SMILES_STRING>
CCC(=O)O[C@H]1CC[C@]2(C)[C@H]3CC=C4[C@@H]5CC(C)(C)CC[C@]5(C(=O)NCCCCCCCCCCC(=O)N[C@H](C(=O)O)C(C)C)CC[C@@]4(C)[C@]3(C)CC[C@H]2C1(C)C

>  <pIC50>
< 4.30

$$$$
>  <STRUCTURE_SMILES_STRING>
CC(C)[C@H](NC(=O)CCCCCCCCCCNC(=O)[C@]12CCC(C)(C)C[C@H]1C1=CC[C@@H]3[C@@]4(C)CC[C@H](OC(=O)CC(C)(C)CC(=O)O)C(C)(C)[C@@H]4CC[C@@]3(C)[C@]1(C)CC2)C(=O)O

>  <pIC50>
< 4.30

$$$$

Continue with the next compound.
System Protease (Human immunodeficiency virus 1, UniProt Q9YQ12). Read-out pIC50. Item C[C@H](NC(=O)CCCCCCCCCCNC(=O)[C@]12CCC(C)(C)C[C@H]1C1=CC[C@@H]3[C@@]4(C)CC[C@H](OC(=O)c5ccccc5C(=O)O)C(C)(C)[C@@H]4CC[C@@]3(C)[C@]1(C)CC2)C(=O)O . Report value. 6.00
